Recorded viscosity values for a group of molecules are listed next.
method notes: xn = mol fraction of the nth substance listed
settings: 308.15 K; 101 kPa; x2 = 0.5
measurement kind: viscosity (mPa·s)

> print(dat)
            molecule  measurement.kind  result.value
1  CCCCCCCCO + CCCCO         viscosity          3.44
2     CCCCCCCCO + CO         viscosity          2.41
3    CCCCCCCCO + CCO         viscosity         2.733
4   CCCCCCCCO + CCCO         viscosity         3.197

---

Recorded viscosity values for a group of compounds are listed next.
method notes: xn = mol fraction of the nth substance listed
settings: 298.15 K; 101 kPa; x2 = 0.75
measurement kind: viscosity (mPa·s)

> print(dat)
            compound  result.value
1  CCCCCCCCO + CCCCO         3.476
2   CCCCCCCCO + CCCO         3.003
3    CCCCCCCCO + CCO         2.141
4     CCCCCCCCO + CO         1.559

These data points were gathered from the CheMixHub viscosity set.
